Reported pIC50 values for a set of compounds
- target_or_test_system: EoblGOBP2 (Ectropis obliqua)
- assay_name: Competitive fluorescence ligand-binding assay with 1-NPN as fluorescent probe
- experimental_conditions: ligand concentration halving 1-NPN fluorescence; protein 1.5 μM
pIC50: −log10 of the molar value.
reported_endpoint: pIC50

[[record]]
compound = "CCCCOC(=O)c1ccccc1C(=O)OCCCC [Dibutyl phthalate]"
readout_value = 4.71

[[record]]
compound = "CCC/C=C/C=O [(E)-2-hexenal]"
readout_value = 3.84

[[record]]
compound = "O=Cc1ccccc1"
readout_value = 3.71

[[record]]
compound = "CCCCCCC/C=C/C=O [(E)-2-decenal]"
readout_value = 4.03

[[record]]
compound = "CC(=O)/C=C/C1=C(C)CCCC1(C)C"
readout_value = 4.25

[[record]]
compound = "COC(=O)c1ccccc1O [Methyl salicylate]"
readout_value = 3.71

[[record]]
compound = "CC(=O)c1ccccc1"
readout_value = 4.24


----------
Reported pKd values for a set of compounds
- target_or_test_system: EoblGOBP2 (Ectropis obliqua)
- assay_name: Competitive fluorescence ligand-binding assay with 1-NPN as fluorescent probe
- experimental_conditions: calculated from IC50: KD = [IC50]/(1 + [1-NPN]/K1-NPN); protein 1.5 μM; read-out: KD Dissociation Constant
pKd: −log10 of the molar value.
reported_endpoint: pKd

[[record]]
compound = "COC(=O)c1ccccc1O [Methyl salicylate]"
readout_value = 4.36

[[record]]
compound = "CC(=O)/C=C/C1=C(C)CCCC1(C)C [β-ionone]"
readout_value = 4.90

[[record]]
compound = "CCC/C=C/C=O [(E)-2-hexenal]"
readout_value = 4.49

[[record]]
compound = "O=Cc1ccccc1 [Benzaldehyde]"
readout_value = 4.35

[[record]]
compound = "CCCCOC(=O)c1ccccc1C(=O)OCCCC [Dibutyl phthalate]"
readout_value = 5.36

[[record]]
compound = "CCCCCCC/C=C/C=O [(E)-2-decenal]"
readout_value = 4.68

[[record]]
compound = "CC(=O)c1ccccc1 [Acetophenone]"
readout_value = 4.89


----------
- target_or_test_system: EoblGOBP2 (Ectropis obliqua, UniProt C0JAP5)
- Sequence (C0JAP5 entry or part of it): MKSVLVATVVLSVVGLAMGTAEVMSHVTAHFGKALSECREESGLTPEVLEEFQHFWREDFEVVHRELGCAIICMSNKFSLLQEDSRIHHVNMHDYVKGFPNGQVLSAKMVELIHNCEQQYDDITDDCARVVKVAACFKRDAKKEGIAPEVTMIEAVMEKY
- assay_name: Competitive fluorescence ligand-binding assay with 1-NPN as fluorescent probe
- experimental_conditions: class symbol; protein 1.5 μM
Reported IC50 values for a set of compounds
reported_endpoint: IC50

[[record]]
compound = "CC1=CC[C@@H](C(C)(C)O)CC1"
readout_value = "> 50 µM"

[[record]]
compound = "CCOP(=O)(OCC)OCC [Triethyl phosphate]"
readout_value = "> 50 µM"

[[record]]
compound = "CC(C)=CCC/C(C)=C\\CO"
readout_value = "> 50 µM"

[[record]]
compound = "C=CC(O)CC (stereo not shown)"
readout_value = "> 50 µM"

[[record]]
compound = "CC/C=C\\CCO [(Z)-3-hexenol]"
readout_value = "> 50 µM"

[[record]]
compound = "CCCCCCCCCCCCCCCC(=O)O"
readout_value = "> 50 µM"

[[record]]
compound = "C1COCO1"
readout_value = "> 50 µM"


----------
- target_or_test_system: EoblGOBP2 (Ectropis obliqua)
- assay_name: Competitive fluorescence ligand-binding assay with 1-NPN as fluorescent probe
- experimental_conditions: direct titration, Scatchard equation; read-out: dissociation constant of 1-NPN to EoblGOBP2
pKd: −log10 of the molar value.
reported_endpoint: pKd

[[record]]
compound = "c1ccc(Nc2cccc3ccccc23)cc1 [1-NPN, N-phenyl-1-naphthylamine, reference compound]"
readout_value = "~5.64"


----------
- target_or_test_system: UniProt C0JAP5
- assay_name: Competitive fluorescence ligand-binding assay with 1-NPN as fluorescent probe
- experimental_conditions: class symbol; protein 1.5 μM
reported_endpoint: IC50

[[record]]
compound = "OCc1ccccc1"
readout_value = "> 50 µM"

[[record]]
compound = "CCCCCO"
readout_value = "> 50 µM"

[[record]]
compound = "CCCCCCO"
readout_value = "> 50 µM"

[[record]]
compound = "C=CC(C)(O)CCC=C(C)C (centres unmarked)"
readout_value = "> 50 µM"

[[record]]
compound = "CC/C=C/C=O [(E)-2-pentenal]"
readout_value = "> 50 µM"

